Values compiled from ChEMBL document CHEMBL4513216.

experiment: Toxicity liver stage against HepG2, at 10uM; assay type: cell-based; design: test concentration 10 uM, cell line HepG2-A16-CD81EGFP; conditions: human, HepG2-A16-CD81EGFP cells; read-out: INHIBITION
resultType: cytotoxicity at 10 µM (%)
Your answer is read as %, so omit the unit and give the number.

Please review the entries below; each comes with its answer.
- molecule: "CCC(CC)NC(=O)c1ncn2c1CN(CC)S(=O)(=O)c1ccccc1-2"
  experimentalValue: -85.1
- molecule: "O=C(Nc1cccc(Cl)c1)c1nn(C2CCS(=O)(=O)C2)c2c1CCCC2 (stereo unspecified)"
  experimentalValue: -12.9
- molecule: "CC(=O)N1CCN(c2cc(CCNC(=O)C(C)C)nc(C3CC3)n2)CC1"
  experimentalValue: -21.3

Can you share its cytotoxicity at 10 µM? I mean this molecule: CC(C)(C(=O)NCCC(=O)O)c1cccc(Br)c1
7.01

Thanks! And Cc1cnc(N2CCc3c(c(COc4cncnc4)nn3C)C2)nc1 ?
-98.8

Now this one: CNC(=O)CCNC(=O)c1cc(Br)c2c(c1)OCCO2
3.82
